The reported numbers originate from ChEMBL document CHEMBL1926571.

We begin with a simple list: items and their reported inhibition.
tested on: Trypanosoma cruzi; test: Inhibition of Trypanosoma cruzi N-terminus His-tagged trans-Sialidase using MuNANA as substrate at 0.5 mM after 10 mins by fluorometric analysis

- MOLECULE: "CC(=O)N[C@H]1[C@H]([C@H](O)[C@H](O)CO)O[C@@](OCc2cn(C[C@H]3O[C@H](O)[C@H](O)[C@@H](O)[C@H]3O)nn2)(C(=O)O)C[C@@H]1O"
  inhibition / %: 30
- MOLECULE: "CC(=O)N[C@H]1[C@H]([C@H](O)[C@H](O)CO)O[C@@](OCc2cn([C@@H]3[C@@H](O)[C@@H](O)O[C@H](CO)[C@H]3O)nn2)(C(=O)O)C[C@@H]1O"
  inhibition / %: 1.5
- MOLECULE: "CO[C@H]1O[C@H](CO)[C@H](O)[C@H](OCc2cn(C(C(=O)O)C(C)O)nn2)[C@H]1O (stereo not given in full)"
  inhibition / %: 1.5
- MOLECULE: "CC(=O)N[C@H]1[C@H]([C@H](O)[C@H](O)CO)O[C@@](OCc2cn([C@@H]3O[C@H](CO)[C@H](O)[C@H](O)[C@H]3O)nn2)(C(=O)O)C[C@@H]1O"
  inhibition / %: 1.5
- MOLECULE: "CC(=O)N[C@H]1[C@H]([C@H](O)[C@H](O)CO)O[C@@](OCc2cn([C@H]3[C@@H](O)[C@H](O)O[C@H](CO)[C@@H]3O)nn2)(C(=O)O)C[C@@H]1O"
  inhibition / %: 1.5
